target: α3β4 nAChR (Rattus norvegicus, UniProt P04757+P12392); test: biochemical; type: binding; design: host or cells: HEK293 (KXα3β4R2); details: α3β4 nAChR
Sequence (P04757 26-499): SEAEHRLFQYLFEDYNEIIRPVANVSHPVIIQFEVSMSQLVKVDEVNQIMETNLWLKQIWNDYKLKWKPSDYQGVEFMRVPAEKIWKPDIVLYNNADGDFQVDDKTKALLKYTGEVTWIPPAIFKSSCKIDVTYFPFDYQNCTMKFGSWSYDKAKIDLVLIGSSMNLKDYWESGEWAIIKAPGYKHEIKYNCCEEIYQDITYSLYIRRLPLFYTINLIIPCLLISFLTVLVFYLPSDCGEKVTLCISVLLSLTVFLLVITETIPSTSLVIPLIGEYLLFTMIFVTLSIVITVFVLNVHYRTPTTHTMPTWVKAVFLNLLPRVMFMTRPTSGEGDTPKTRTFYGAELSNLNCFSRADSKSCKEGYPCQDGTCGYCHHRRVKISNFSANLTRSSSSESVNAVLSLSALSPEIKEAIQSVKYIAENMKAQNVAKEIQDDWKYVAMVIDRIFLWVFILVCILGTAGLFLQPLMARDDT
Sequence (P12392 21-495): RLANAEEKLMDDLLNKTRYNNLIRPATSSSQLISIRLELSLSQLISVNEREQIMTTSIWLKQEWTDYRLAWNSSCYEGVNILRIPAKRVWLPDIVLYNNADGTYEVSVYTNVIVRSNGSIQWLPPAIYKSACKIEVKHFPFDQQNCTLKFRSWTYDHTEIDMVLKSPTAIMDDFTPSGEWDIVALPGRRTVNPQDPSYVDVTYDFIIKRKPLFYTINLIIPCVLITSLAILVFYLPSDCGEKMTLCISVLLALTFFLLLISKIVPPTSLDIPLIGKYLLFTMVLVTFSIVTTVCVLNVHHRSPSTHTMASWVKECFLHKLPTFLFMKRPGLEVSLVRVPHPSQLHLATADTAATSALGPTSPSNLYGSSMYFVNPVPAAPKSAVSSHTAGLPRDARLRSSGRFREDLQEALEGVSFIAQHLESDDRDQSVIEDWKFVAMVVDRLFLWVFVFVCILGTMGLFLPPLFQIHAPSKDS

molecule | logk′
COc1ccc([C@@H]2Sc3ccccc3N(CCN(C)C)C(=O)[C@@H]2OC(C)=O)cc1 | 1.64
COc1ccc(C(C#N)(CCCN)C(C)C)cc1OC (stereo not shown) | 1.25
COC(=O)C1=C(C)NC(C)=C(C(=O)OCCN(C)Cc2ccccc2)C1c1cccc([N+](=O)[O-])c1 (stereo not shown) | 2.33
CNCCN1C(=O)[C@H](OC(C)=O)[C@H](c2ccc(OC)cc2)Sc2ccccc21 | 1.61

====

target: α3β4 nAChR (Rattus norvegicus, UniProt P04757+P12392); assay: Nicotine-stimulated 86Rb+ efflux assay, KXα3β4R2 cell line; format: cell-based; design: host or cells: HEK293 (KXα3β4R2); settings: nicotine-stimulated 86Rb+ efflux, cell line KXα3β4R2; read-out: IC50
measurement label: IC50 (µM)

compound | val
COc1ccc(C(C#N)(CCCN)C(C)C)cc1OC [Compound D-620] | 48.9
COc1ccc(CCN(C)CCCC(C#N)(c2cc(OC)c(OC)c(OC)c2)C(C)C)cc1OC (stereo not shown) [galapamil] | 6.4
COC(=O)C1=C(C)NC(C)=C(C(=O)OCCN(C)Cc2ccccc2)C1c1cccc([N+](=O)[O-])c1 (stereo not shown) [nicardapine] | 2.5
CNCCN1C(=O)[C@H](OC(C)=O)[C@H](c2ccc(OC)cc2)Sc2ccccc21 [MA] | 4.2
